In this section we review reported melting point values for a set of molecules.

Example results:
[[record]]
molecule = "Nc1nccc(-c2c(-c3ccc(F)cc3)ncn2C2CCNCC2)n1"
result = "199 to 200 °C"

[[record]]
molecule = "CC(=O)N1CCN(C(=O)C2(C#N)Nc3cc(C)c(-c4ccccc4)c(N4CC[C@H](N(C)C)C4)c3O2)CC1 (stereo partly specified)"
result = "102 to 105 °C"

[[record]]
molecule = "Cn1c2c(c3cc(O)ccc31)CC(CO)C2 (stereo unspecified)"
result = "153 to 154 °C"

[[record]]
molecule = "CCOC(=O)c1cc2ccccc2nc1C(Cl)(Cl)Cl"
result = "66 to 75 °C"

[[record]]
molecule = "Nc1ncnc2c1ncn2OCC/C=C/P(=O)(O)O"
result = "238 °C"

[[record]]
molecule = "CCN1C(=O)C(C(=O)c2cccs2)c2cc(Cl)cnc21 (stereo unspecified)"
result = "111 to 112 °C"

[[record]]
molecule = "CCOCc1nc2c(N)nc3ccccc3c2n1CCCNS(C)(=O)=O"
result = "208 to 210 °C"

[[record]]
molecule = "COC(=O)CCC#Cc1cc(Cl)ccc1NS(=O)(=O)c1cccc(C)c1"
result = "69 °C"


Looking for the measured melting point of `CCOC(=O)[C@H](Cn1cc(C)c(SC#N)nc1=O)NS(=O)(=O)N(C)C` , can you help?
158 °C

Try this molecule too: `COc1cccc(C(=O)Cl)c1OC(C)=O`
51 to 54 °C

====

Below is a list of entries, each paired with its recorded melting point value.

Which melting point is reported for this molecule? `CCCCOC(=O)c1cccc2c1-c1ccccc1C2=C(C#N)C#N`
99 to 100 °C

====

Consider the following compounds and their measured melting point readings.

// solved cases for melting point follow
[[record]]
compound = "NC(=O)N(O)CCNC(=O)Cc1cccc(Oc2ccccc2)c1"
result = "150 to 152 °C"

[[record]]
compound = "NC(=O)C(OCC1c2ccccc2-c2ccccc21)c1ccc(C(=O)O)cc1 (stereo not given)"
result = "232 to 235 °C"

[[record]]
compound = "CCC(C)COC(=O)C1(OC(=O)c2ccc(O)cc2)C=CC=CC1 (stereo not given)"
result = "90.8 to 92.6 °C"

[[record]]
compound = "CCCCCCC1OC(=O)c2cc(NC(C)=O)ccc21 (stereo not given)"
result = "135 to 137 °C"


Give the measured melting point of `C#CCc1c(C)nc2c(OCc3ccccc3CO)cccn12` .
137 to 138 °C

Follow-up item: CCOCCNC(=O)c1ccc(CN2C(=O)C3(COc4cc5c(cc43)CCO5)c3ccccc32)cc1 (stereo not given)
84 to 85 °C

Now consider `CCCCCCCC(=N)NC(=O)Nc1ccc(Cl)cc1` .
156 to 165 °C

For `CCC=CCn1c(=O)sc2c(=O)[nH]c(N)nc21` then?
240 to 243 °C

Next entry: `CCOC[C@@H]1CNCC[C@@H]1c1ccc(Cl)c(Cl)c1`
68 to 70 °C

Repeat with CC(C)c1ccc(C(=O)C(C)c2ccccc2)c(C(C)C)c1OS(N)(=O)=O (stereo not given)
142 to 144 °C

====

Measured melting point values are reported for all entries that follow.

[[record]]
molecule = "CC(CNc1cc(Oc2ccc3c(C(=O)Nc4cc(C(C)(C)C)nn4-c4ccc(F)cc4)cccc3c2)ncn1)N(C)C (configuration not stated)"
result = "190 to 193 °C"

[[record]]
molecule = "CSc1ccc2c(c1)CN(C(C)C)S(=O)(=O)N2CCCl"
result = "74 to 75 °C"

[[record]]
molecule = "CCOC(=O)/C(CCO)=C(\\c1ccc(Cl)cc1)c1ccc(S(C)(=O)=O)cc1"
result = "128 °C"

[[record]]
molecule = "CCOc1ccc(C2=NN(C3CCN(C(=O)CCCC(=O)O)CC3)C(=O)[C@@H]3CC=CC[C@H]23)cc1OCC"
result = "133 to 135 °C"

[[record]]
molecule = "c1ccc(C(OC2CCNCC2)c2ccccc2)cc1"
result = "56 °C"

[[record]]
molecule = "O=c1oc2ccccc2c2oc(=S)c(-c3ccccc3)cc12"
result = "256 to 257 °C"

[[record]]
molecule = "Cc1cc(Cl)nnc1-c1ccc(C#N)cc1"
result = "218 to 220 °C"

[[record]]
molecule = "CCCc1nc(NCc2ccccn2)nc(Nc2cccc(C(C)C)c2)n1"
result = "103 to 104 °C"

[[record]]
molecule = "O=C(O)CCCNC(=O)c1ccccc1NC(=O)c1ccccc1[N+](=O)[O-]"
result = "142 to 144 °C"

[[record]]
molecule = "Cc1cc(Cc2cnc(NCCSCc3cc(CN(C)C)ccn3)[nH]c2=O)cnc1C"
result = "72 to 78 °C"


State the recorded melting point for this entry: `Cc1cccc2c3c([nH]c12)CCNC3=O`
300 to 302 °C

Entry `NC(=O)Cc1c(Cl)cnc2c(NC(=O)c3c(Cl)cccc3Cl)cccc12` please
> 300 °C
